- System: OVCAR-3
- experiment-description: Antitumor activity against human OVCAR-3 cells by trypan blue exclusion assay
- Type: functional, cell-based
property: IC50 (nM)

{"columns": ["smiles-data", "IC50, nM"],
 "data": [
  ["COc1cc(OC)c(/C=C/S(=O)(=O)Cc2ccc(OC)c(O)c2)c(OC)c1", 6],
  ["COc1ccc(CS(=O)(=O)/C=C/c2c(OC)cc(OC)cc2OC)cc1", 8]
]}

* * *

- Test system: 2008
- experiment-description: Antitumor activity against human 2008 cells by trypan blue exclusion assay
- Assay type: functional, cell-based
property: IC50 (nM)
Just the number please, in nM, no unit attached.

Form: compound = COc1cc(OC)c(/C=C/S(=O)(=O)Cc2ccc(OC)c(O)c2)c(OC)c1 ; IC50 = 5
